From: ChEMBL document CHEMBL2202996

Entries and their measured Drug uptake follow.
Test system: Cerebrum
Experiment: Biodistribution in Wistar rat cerebrum at 22 Mbq, iv measured at 2 mins post administration by gamma counting
Assay type: ADME, organism-based
Details: in vivo
Reply numerically in %ID, unit not repeated.

Example entries begin here.
[11CH3]Oc1cccc(F)c1C1CCN(c2ccn3c(CC4CC4)nnc3c2Cl)CC1: 0.45
[11CH3]Oc1ccc(F)cc1C1CCN(c2ccn3c(CC4CC4)nnc3c2Cl)CC1: 0.45

Provide value of Drug uptake for this record tested with Cerebrum: [11CH3]Oc1cc(F)cc(F)c1C1CCN(c2ccn3c(CC4CC4)nnc3c2Cl)CC1
0.53

Let us now turn to [11CH3]Oc1ccc(F)c(F)c1C1CCN(c2ccn3c(CC4CC4)nnc3c2Cl)CC1
0.46

Let us now turn to [11CH3]Oc1c(F)ccc(F)c1C1CCN(c2ccn3c(CC4CC4)nnc3c2Cl)CC1
0.69

Let us now turn to [11CH3]Oc1c(F)ccc(F)c1C1CCN(c2ccn3c(CC4CC4)nnc3c2C(F)(F)F)CC1
0.54
